Each recorded value in this set is attributed to patent US20170304195A1.

- Run description: Octreotide pharmacokinetics after s.c. or ileum administration (Example 9)
- Type: in vivo, Sprague Dawley rats
- Measurement parameters: Sprague Dawley, rat, plasma, other: into distal small intestine (ileum); octreotide 0.92 mg/kg ileum (n = 8); lauroyl carnitine chloride 30 mg/ml, CuSO4 1 mg/ml, sodium ascorbate 30 mg/ml, TRIS 22.5 mg/ml
Measured property: Cmax (ng/mL)
Answers are plain numbers, in ng/mL.

QUERY: // query Cmax value for entry C[C@@H](O)[C@@H]1NC(=O)[C@H](CCCCN)NC(=O)[C@@H](Cc2c[nH]c3ccccc23)NC(=O)[C@H](Cc2ccccc2)NC(=O)[C@@H](NC(=O)[C@H](N)Cc2ccccc2)CSSC[C@@H](C(=O)N[C@H](CO)[C@@H](C)O)NC1=O [Octreotide]
RESULT: 25.8
